Test: in vivo
Conditions: CD1 nude, mouse, 0.5 nmol/mouse, total radioactivity, HEK-uPAR xenograft uptake

{"columns": ["Compound", "tissue uptake at 4 h"],
 "data": [
  ["Cc1ccc(CCCC(=O)NCCOCCOCCOCCOCCC(=O)NC[C@H](NC(=O)CN2CCN(CC(=O)O)CCN(CC(=O)O)CCN(CC(=O)O)CC2)C(=O)N[C@@H](CC(=O)O)C(=O)N[C@@H](CC2CCCCC2)C(=O)N[C@@H](Cc2ccccc2)C(=O)N[C@H](CO)C(=O)N[C@H](CCCNC(=N)N)C(=O)N[C@@H](Cc2ccc(O)cc2)C(=O)N[C@@H](CC(C)C)C(=O)N[C@@H](Cc2c[nH]c3ccccc23)C(=O)N[C@@H](CO)C(N)=O)cc1 [[^177Lu]Lu-uPAR-14, metal not drawn]", "9 %ID/g"],
  ["Cc1ccc(CCCC(=O)NCCOCCOCCOCCC(=O)NCCCC[C@H](NC(=O)CN2CCN(CC(=O)O)CCN(CC(=O)O)CCN(CC(=O)O)CC2)C(=O)N[C@@H](CC(=O)O)C(=O)N[C@@H](CC2CCCCC2)C(=O)N[C@@H](Cc2ccccc2)C(=O)N[C@H](CO)C(=O)N[C@H](CCCNC(=N)N)C(=O)N[C@@H](Cc2ccc(O)cc2)C(=O)N[C@@H](CC(C)C)C(=O)N[C@@H](Cc2c[nH]c3ccccc23)C(=O)N[C@@H](CO)C(N)=O)cc1 [[^177Lu]Lu-uPAR-15, metal not drawn]", "12 %ID/g"]
]}
